# Assay details: NCI Yeast Anticancer Drug Screen. Data for the mec2-1 strain (AID 157)
# Condition description: S. cerevisiae mec2-1 strain, at 50.0 µM
Compounds without any hit were thinned out: in the full panel of roughly 79,000, 15% have a hit. Active and inactive are the calls of the source. Cut-off read from the data, not from the text of the source: active = growth inhibition above about 70%; inactive = the rest.
Hello, when you answer, please use one of the following outcomes: active, inactive

{"Compound": "O=C1OC(c2ccc(Cl)cc2)Sc2ccccc21 (stereo unspecified)", "Label": "active"}

Outcome logged for `Nc1ccc2ncc(Nc3ccc(Cl)c(Cl)c3)nc2c1` in this assay:
active

Outcome logged for `O=[N+]([O-])C(=C(NCc1ccccc1)NCc1ccccc1)C(Cl)=C(Cl)Cl` in this assay:
inactive

Outcome logged for `O=C1C=CC(=O)N1c1ccc(Br)cc1Cl` in this assay:
active

Outcome logged for `O=C(N/N=C/c1ccc2c(c1)CCC2)c1ccccc1[N+](=O)[O-]` in this assay:
active

Outcome logged for CCC1SC(=S)N(c2ccc(Cl)cc2)C1=O (stereo unspecified) in this assay:
inactive
